# tested.target: Human PD-L1/PD-1 (Homo sapiens)
# Construct: made in house; host or cells: HEK293T
# Sequence (Q9NZQ7 with tags, fused parts or gaps): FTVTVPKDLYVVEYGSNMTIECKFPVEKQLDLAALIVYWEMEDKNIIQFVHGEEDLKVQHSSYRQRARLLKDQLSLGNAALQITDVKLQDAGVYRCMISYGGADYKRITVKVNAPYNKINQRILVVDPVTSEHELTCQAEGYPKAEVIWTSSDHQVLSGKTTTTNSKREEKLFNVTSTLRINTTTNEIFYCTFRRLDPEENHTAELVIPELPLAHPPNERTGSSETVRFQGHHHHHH
# assay.summary: HTRF PD-1-Ig/PD-L1-His binding assay (human PD-L1)
# condition.notes: Table 8, Compound No. 1 variant macrocyclic peptides; read-out: HTRF Human PD-L1/PD-1 Binding Assay IC50
Positions of bridges follow the written chain, without caps; N, C: chain ends. Non-standard residues stand in square brackets, D forms with d. Residues, ends and D or L forms follow the SMILES beside them. ξ: configuration not given here. NMeNle = CCCC[C@H](NC)C(=O)O; NMeA = CN[C@@H](C)C(=O)O; ξP = O=C(O)C1CCCN1; Sar = CNCC(=O)O
# IC50 per record follows
API: value field is a number in nM; no unit string.

{"molecule": "CCCC[C@H]1C(=O)N(C)[C@@H](CCCC)C(=O)N[C@@H](CCCNC(=N)N)C(=O)N[C@H](C(=O)NCC(N)=O)CSCC(=O)N[C@@H](Cc2ccccc2)C(=O)N(C)[C@@H](C)C(=O)N[C@@H](CC(N)=O)C(=O)N2CCC[C@H]2C(=O)N[C@@H](Cc2cnc[nH]2)C(=O)N[C@@H](CC(C)C)C(=O)N2CCC[C@H]2C(=O)N[C@@H](Cc2c[nH]c3ccccc23)C(=O)N[C@@H](CO)C(=O)N[C@@H](Cc2c[nH]c3ccccc23)C(=O)N1C [Compound No. 55] ({CH2CO}-F[NMeA]NPHLPWSW[NMeNle][NMeNle]RCG-NH2; thioether N-14)", "tested.target": "Human PD-L1/PD-1 (Homo sapiens)", "uom": "nM", "IC50": 4}

GET /values?readout=IC50&item= CCCC[C@H]1C(=O)N(C)[C@@H](CCCC)C(=O)N[C@@H](CCCNC(=N)N)C(=O)N[C@H](C(=O)NCC(N)=O)CSCC(=O)N[C@@H](Cc2ccccc2)C(=O)N(C)[C@@H](C)C(=O)N[C@@H](CC(N)=O)C(=O)N2CCCC2C(=O)N[C@@H](Cc2cnc[nH]2)C(=O)N[C@@H](CC(C)C)C(=O)N(C)CC(=O)N[C@@H](Cc2c[nH]c3ccccc23)C(=O)N[C@@H](C)C(=O)N[C@@H](Cc2c[nH]c3ccccc23)C(=O)N1C (some centres unmarked) [Compound No. 16] ({CH2CO}-F[NMeA]N[ξP]HL[Sar]WAW[NMeNle][NMeNle]RCG-NH2; thioether N-14)
5
